System: SW1271 complex spheroids with HUVEC/MSC, growth, % test/control
measurement_description: Anticancer human tumor SW1271 cell line growth inhibition [AhR];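 also: spheroids exposed to agents for 7 days before readout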
measurement_setup: curve of first compound; second compound 10 µM
endpoint_label: IC50

The cases that follow already have their IC50 on record.
INSERT INTO measurements (compound, result) VALUES
  ('CC[C@@]1(O)C(=O)OCc2c1cc1n(c2=O)Cc2cc3c(CN(C)C)c(O)ccc3nc2-1 + Cc1ccccc1N=Nc1ccc(NC(=O)c2ccnn2C)c(C)c1', '> 100 nM'),
  ('Nc1ccccc1NC(=O)c1ccc(CNC(=O)OCc2cccnc2)cc1 + CC(CO)NC(=O)c1cc(-c2ccc(Cl)cc2)nn(-c2cnn(C)c2)c1=O', '294 nM'),
  ('CC1COCCN1c1cc(-c2ccnn2C)c2ccnc(-c3ccn[nH]3)c2n1 (centres undefined) + CC(CO)NC(=O)c1cc(-c2ccc(Cl)cc2)nn(-c2cnn(C)c2)c1=O', '543 nM');

Item: Nc1ncn(C2CC(O)C(CO)S2)c(=O)n1 (centres undefined) + Cc1ccccc1N=Nc1ccc(NC(=O)c2ccnn2C)c(C)c1 Test system: SW1271 complex spheroids with HUVEC/MSC, growth, % test/control Read-out: IC50 Value: ?
> 300 nM
